Test: chemical genetic growth profiling, strain panel (AID 1159580);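 further: tested at 20 µM; growth read once vehicle control cultures reached saturation at 30 °C; 1 = growth at the plate median or of vehicle wells; lower values mean less growth of the strain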
Conditions: S. cerevisiae deletion strains, growth OD, locus YNL271C, strain bni1, hits give low values
Among all 5,500 compounds or so, about 2,000 (36%) were called active. Not shown: some 18% with an inconclusive outcome. This is one part of the list.
Each record is given Met if its reported normalized growth is strictly below 1. Records at or above 1 are given Not met.

- compound: "CC(=O)N[C@@H](CS)C(=O)O"
  group_label: "Not met"
- compound: "CC1(C)C2(Cl)C(Cl)C(Cl)C(Cl)(C(Cl)Cl)C1(Cl)C2Cl (stereo unspecified)"
  group_label: "Met"
- compound: "C=C1C(=O)O[C@@H]2C3O[C@]3(C)CC/C=C(\\C)CC[C@@H]12 (stereo partly specified)"
  group_label: "Met"

* * *

# normalized growth values compiled below
Assay: chemical genetic growth profiling, strain panel (AID 1159580)
Conditions: S. cerevisiae deletion strains, growth OD, strain wtn01, hits give low values
Screen size: about 5,500 compounds; about 2,000 (36%) were called active. Roughly 18% stayed inconclusive and do not appear here. This is one part of the list.
quantity_kind: normalized growth

- molecule: "Cc1cc(NC(=O)C2=C(O)c3ccccc3S(=O)(=O)N2C)no1"
  test_value: 0.961
- molecule: "Cc1cccc(C(=O)O)c1O"
  test_value: 1
- molecule: "COc1cc2c(cc1OC)C1Cc3ccc(OC)c(OC)c3CN1CC2 (stereo not given)"
  test_value: 0.968
- molecule: "CC(C)NNC(=O)c1ccncc1"
  test_value: 1.02
- molecule: "CCNC(=O)CC[C@H](N)C(=O)O"
  test_value: 0.989

* * *

Experiment: chemical genetic growth profiling, strain panel (AID 1159580);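 further: tested at 20 µM; growth read once vehicle control cultures reached saturation at 30 °C; 1 = growth at the plate median or of vehicle wells; lower values mean less growth of the strain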
Conditions: S. cerevisiae deletion strains, growth OD, locus YGR052W, strain FMP48
About 2,000 (36%) of roughly 5,500 compounds were called active. Inconclusive results (about 18%) are left out. Cut-off read from the data, not from the text of the source: active = normalized growth mostly below about 0.91 (no sharp cut-off); inconclusive = no clear call, values can overlap the other calls; inactive = mostly above about 0.92. This is one part of the list.
Classes used: active, inactive

- compound: "CCCCN(C)C(=O)c1cc([N+](=O)[O-])cc2c1-c1ccc([N+](=O)[O-])cc1C2=C(C#N)C#N"
  group_label: "inactive"
- compound: "O=[N+]([O-])c1ccc2oc(C(O)c3cccc(Cl)c3)cc2c1 (centres undefined)"
  group_label: "inactive"
- compound: "O=C(Nc1ccc(Cl)cc1)OCCSc1nc2ccccc2s1"
  group_label: "inactive"
- compound: "O=[N+]([O-])c1ccc(Sc2ssc(=S)c2-c2ccccc2)nc1"
  group_label: "active"
- compound: "Cc1ccc(NNC(=O)c2c(C)noc2C)cc1Cl"
  group_label: "inactive"
- compound: "Cc1onc(-c2c(Cl)cccc2Cl)c1C(=O)NNc1c(Cl)cccc1Cl"
  group_label: "inactive"
- compound: "O=C(Nc1ccc(OC(F)(F)F)cc1)N1CCN(c2nc(-c3ccccc3)ns2)CC1"
  group_label: "inactive"
- compound: "O=c1c2ccccc2[nH]c(=S)n1-c1cccc(C(F)(F)F)c1"
  group_label: "inactive"
- compound: "FC(F)(F)c1cccc(-n2c(CSCc3cccc4ccccc34)n[nH]c2=S)c1"
  group_label: "inactive"
- compound: "CCc1ccn2cc(Nc3ccccc3Cl)nc2c1"
  group_label: "inactive"
- compound: "COC(=O)c1sccc1-c1ccc(/C=C/[N+](=O)[O-])o1"
  group_label: "active"
- compound: "CC(C)(CCC(C)(C)N1C(=O)c2cccc3cccc(c23)C1=O)N1C(=O)c2cccc3cccc(c23)C1=O"
  group_label: "active"
- compound: "O=[N+]([O-])c1ccc2c(c1)NC(c1ccc([N+](=O)[O-])s1)O2 (centres undefined)"
  group_label: "active"
- compound: "Cc1c(-c2ccnn2C(=O)c2ccco2)cnn1-c1ccccc1"
  group_label: "inactive"
- compound: "Cc1c(C(=S)Nc2ccccc2)sc2ccccc12"
  group_label: "inactive"
- compound: "CC(=O)ON=C1c2cc([N+](=O)[O-])ccc2-c2ccc([N+](=O)[O-])cc21"
  group_label: "inactive"
- compound: "Cc1c(C(=O)N(Cc2ccccc2)Cc2cccs2)cnn1-c1ccc(Cl)cc1"
  group_label: "inactive"
- compound: "Cc1ccc(NS(=O)(=O)c2ccc(-c3csc(C)n3)s2)c(C)c1"
  group_label: "inactive"
- compound: "CC(=O)Nc1ccc(S(=O)(=O)Nc2ccccc2Oc2ccc(Cl)cc2Cl)cc1"
  group_label: "inactive"
- compound: "ClC1=C(C=Nc2ccc(Cl)cc2)CSc2ccc(Cl)cc21"
  group_label: "inactive"
- compound: "O=C(Nc1ccc(OC(F)(F)F)cc1)OC1CN(C(c2ccccc2)c2ccccc2)C1"
  group_label: "inactive"
- compound: "O=C(/C=C/Sc1nc2ccccc2s1)c1ccc(Cl)cc1"
  group_label: "inactive"
- compound: "Cc1onc(-c2c(F)cccc2Cl)c1C(=O)NNc1cc(Cl)cc(Cl)c1"
  group_label: "inactive"
- compound: "Cc1ccc(NC(=O)c2ccccc2N=Cc2cc(Cl)cc(Cl)c2O)c(N=Cc2cc(Cl)cc(Cl)c2O)c1"
  group_label: "active"

* * *

Assay: chemical genetic growth profiling, strain panel (AID 1159580);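 further: tested at 20 µM; growth read once vehicle control cultures reached saturation at 30 °C; 1 = growth at the plate median or of vehicle wells; lower values mean less growth of the strain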
Details: S. cerevisiae deletion strains, growth OD, locus YPL106C, strain sse1
Hit rate of the full screen: of about 5,500 compounds, about 2,000 (36%) were called active. About 18% were inconclusive and are not listed. Cut-off read from the data, not from the text of the source: active = normalized growth mostly below about 0.91 (no sharp cut-off); inconclusive = no clear call, values can overlap the other calls; inactive = mostly above about 0.92. Some of the results follow.
Outcomes: class 1 (active), class 0 (inactive)

- compound: "CC(C)[C@@H]1CC[C@@H](C)C[C@H]1O"
  group_label: "class 0"
- compound: "CCC(C)(C)C(=O)O[C@H]1C[C@@H](C)C=C2C=C[C@H](C)[C@H](CC[C@@H]3C[C@@H](O)CC(=O)O3)[C@H]21"
  group_label: "class 1"
- compound: "O=c1[nH]oc2c1CCNC2"
  group_label: "class 0"
- compound: "O=C1CC2OCC=C3CN4CC[C@]56c7ccccc7N1C5[C@H]2[C@H]3CC46 (stereo partly specified)"
  group_label: "class 0"
- compound: "CCNC(=O)CC[C@H](N)C(=O)O"
  group_label: "class 0"
- compound: "C[C@@H]1C(=O)OC2[C@H](O)C34[C@@H]5OC(=O)[C@@]3(O[C@@H]3OC(=O)[C@H](O)[C@@]34[C@H](C(C)(C)C)[C@H]5O)[C@]21O (stereo partly specified)"
  group_label: "class 0"
- compound: "Cn1c(=O)c2[nH]cnc2n(C)c1=O"
  group_label: "class 0"
- compound: "Cc1c(S(=O)(=O)O)oc2c1C(=O)C(=O)c1c-2ccc2c1CCCC2(C)C"
  group_label: "class 0"
- compound: "COC(=O)[C@@H]1OC(=O)[C@H]2O[C@@]23[C@@]1(C)CCC1[C@@]2(C)CCC(=O)C(C)(C)C2C[C@@H](OC(C)=O)[C@]13C (stereo partly specified)"
  group_label: "class 0"
- compound: "CC1C[C@H]2CC(=O)[C@H]3CCCN4CCC[C@H]2[C@]34C1 (stereo partly specified)"
  group_label: "class 0"
- compound: "CCCCOC(=O)c1ccc(N)cc1"
  group_label: "class 1"
- compound: "Nc1nc2ncc(=O)[nH]c2c(=O)[nH]1"
  group_label: "class 0"
- compound: "COc1cc(-c2coc3cc(OC)c(OC)c(OC)c3c2=O)cc(OC)c1OC"
  group_label: "class 0"
- compound: "C=C1C(=O)O[C@@H]2C3O[C@]3(C)CC/C=C(\\C)CC[C@@H]12 (stereo partly specified)"
  group_label: "class 0"
- compound: "N[C@@H](CC(=O)N1CCn2c(nnc2C(F)(F)F)C1)Cc1cc(F)c(F)cc1F"
  group_label: "class 0"
- compound: "Clc1cccc(Cl)c1NC1=NCCN1"
  group_label: "class 0"
- compound: "Cc1coc2c1C(=O)C(=O)c1c-2ccc2c1CCCC2(C)C"
  group_label: "class 0"
- compound: "CCCCC(=O)Oc1ccccc1C(=O)O"
  group_label: "class 0"
- compound: "CCC(C)C(=O)O[C@H]1C[C@H](O)C=C2C=C[C@H](C)[C@H](CC[C@@H](O)C[C@@H](O)CC(=O)O)C21 (stereo partly specified)"
  group_label: "class 0"
- compound: "CCCCCCCCCCCCCCCC(=O)OC1C(SC)OC(C(NC(=O)C2CC(CCC)CN2C)C(C)Cl)C(O)C1O (stereo unspecified)"
  group_label: "class 0"
- compound: "OCCOCCN1CCN(C2=Nc3ccccc3Sc3ccccc32)CC1"
  group_label: "class 0"

* * *

Test: chemical genetic growth profiling, strain panel (AID 1159580);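 further: tested at 20 µM; growth read once vehicle control cultures reached saturation at 30 °C; 1 = growth at the plate median or of vehicle wells; lower values mean less growth of the strain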
Conditions: S. cerevisiae deletion strains, growth OD, locus YHR013C, strain ard1, hits give low values
Screen size: about 5,500 compounds; about 2,000 (36%) were called active. Inconclusive results (about 18%) are left out. The list shows a part of the results.
The following molecules are shown together with reported normalized growth values.
quantity_kind: normalized growth

- molecule: "OCc1ccccc1O"
  quantity_kind: "normalized growth"
  test_value: "1.06 (inactive)"
- molecule: "COc1cc([C@@H]2c3cc4c(c(O)c3C[C@H]3COC(=O)[C@@H]32)OCO4)cc(OC)c1OC"
  quantity_kind: "normalized growth"
  test_value: "1 (inactive)"
- molecule: "COc1ccc2c(c1)O[C@H]1c3ccc(OC)cc3OC[C@@H]21"
  quantity_kind: "normalized growth"
  test_value: "1.05 (inactive)"
- molecule: "Nc1ccn(C2O[C@H](CO)[C@@H](O)[C@@H]2O)c(=O)n1 (stereo partly specified)"
  quantity_kind: "normalized growth"
  test_value: "1.02 (inactive)"
- molecule: "CC(C)C(C)/C=C/C(C)[C@H]1CCC2C3=CCC4CC(=O)CC[C@]4(C)C3CC[C@@]21C (stereo partly specified)"
  quantity_kind: "normalized growth"
  test_value: "0.968 (inactive)"
- molecule: "COc1ccc2c(c1OC)C(=O)OC2[C@H]1c2c(cc3c(c2OC)OCO3)CCN1C (stereo partly specified)"
  quantity_kind: "normalized growth"
  test_value: "1.02 (inactive)"
- molecule: "Oc1ccc(Cl)cc1"
  quantity_kind: "normalized growth"
  test_value: "1.03 (inactive)"
- molecule: "CC(C)C(C)/C=C/C(C)C1CCC2C3=CC=C4CC(O)CCC4(C)C3CCC21C (stereo unspecified)"
  quantity_kind: "normalized growth"
  test_value: "0.972 (inactive)"
- molecule: "COc1ccc([C@H]2Oc3cc(OC)cc(OC)c3C[C@H]2O)cc1"
  quantity_kind: "normalized growth"
  test_value: "1.05 (inactive)"
- molecule: "CC(C)(C)CC(C)(C)c1ccc(O)c(Cc2ccc(Cl)cc2Cl)c1"
  quantity_kind: "normalized growth"
  test_value: "1.02 (inactive)"
- molecule: "CC(=O)N[C@@H](CS)C(=O)O"
  quantity_kind: "normalized growth"
  test_value: "1.02 (inactive)"
